For each entry below, report its EC50 hGLP1R 100% hP (CreLuc) value.
target: GLP-1 receptor (human (printed as hGLP1R), UniProt P43220 24-463); test: cell-based or functional assay
Starred links: 1 amine or outer side, 2 acyl side, 3 side chain; linkers in the order of their positions; H or OH if unused. Non-standard residues stand in square brackets, D forms with d. Groups on a side chain read outwards from the residue. No end group written: not given here. *: point of attachment. C20 diacid = O=C(O)CCCCCCCCCCCCCCCCCCC(=O)*; γGlu = O=C(O)[C@H](CCC(=O)[*:2])N[*:1]; εLys = N[C@@H](CCCCN[*:1])C(=O)[*:2]; AEEA = NCCOCCOCC(=O)O; Aib = CC(C)(N)C(=O)O
Express your answer in nM, writing the number without its unit.

**Q:** Give the measured EC50 hGLP1R 100% hP (CreLuc) of Y[Aib]EGTFTSDYSI[Aib]LEKQAE[Aib]AFVQWLIK([εLys-γGlu-γGlu-γGlu-γGlu-γGlu-C20 diacid])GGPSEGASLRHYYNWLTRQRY-NH2 (also: TFA salt) [Compound 200] .
**A:** 25.8

**Q:** Give the measured EC50 hGLP1R 100% hP (CreLuc) of Y[Aib]EGTFTSDYSI[Aib]LEKQAQ[Aib]AFVQWLIK([γGlu-γGlu-γGlu-γGlu-γGlu-γGlu-C20 diacid])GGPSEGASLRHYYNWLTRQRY-NH2 (also: TFA salt) [Compound 223] .
**A:** 4.39

**Q:** Give the measured EC50 hGLP1R 100% hP (CreLuc) of Y[Aib]EGTFTSDYSI[Aib]LEKQAQ[Aib]AFVEWLIK([εLys-γGlu-γGlu-γGlu-γGlu-γGlu-C20 diacid])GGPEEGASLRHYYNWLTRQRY-NH2 (also: TFA salt) [Compound 230] .
**A:** 8.23

**Q:** Give the measured EC50 hGLP1R 100% hP (CreLuc) of Y[Aib]EGTFTSDYSI[Aib]LEKQAQ[Aib]AFVEWLIKGGPSYYASLRHYYNWLTRQRY-NH2 (not fully specified (residue 28); also: TFA salt) [Compound 203] .
**A:** 27

**Q:** Give the measured EC50 hGLP1R 100% hP (CreLuc) of Y[Aib]EGTFTSDYSI[Aib]LEKQAQ[Aib]AFVEWLIK([AEEA-AEEA-γGlu-γGlu-γGlu-γGlu-C20 diacid])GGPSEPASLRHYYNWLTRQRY-NH2 (also: TFA salt) [Compound 226] .
**A:** 7.6

**Q:** Give the measured EC50 hGLP1R 100% hP (CreLuc) of Y[Aib]EGTFTSDYSI[Aib]LEKQAQ[Aib]AFVEWLIKGGPSSGVSLRHYYNWLTRQRY-NH2 (not fully specified (residue 28); also: TFA salt) [Compound 212] .
**A:** 3.69

**Q:** Give the measured EC50 hGLP1R 100% hP (CreLuc) of YXEGTFTSDYSIXLEKQAQXAFVEWLIKGGPSYGASLRHYYNWLTRQRY (Aib at 2, 13, 20; K28 side chain carries C20DA-gGlu-gGlu-gGlu-gGlu-gGlu-gGlu-eLys; C-terminal amide) [Compound 232] .
**A:** 4.88

**Q:** Give the measured EC50 hGLP1R 100% hP (CreLuc) of YXEGTFTSDYSIXLEKQAQXAFVEWLIKGGPSSGALLRHYYNWLTRQRY (Aib at 2, 13, 20; K28 side chain carries C20DA-gGlu-gGlu-gGlu-gGlu-gGlu-gGlu-eLys; C-terminal amide) [Compound 197] .
**A:** 6.06

**Q:** Give the measured EC50 hGLP1R 100% hP (CreLuc) of Y[Aib]EGTFTSDYSI[Aib]LEKQAQ[Aib]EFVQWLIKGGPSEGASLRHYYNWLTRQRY-NH2 (not fully specified (residue 28); also: TFA salt) [Compound 207] .
**A:** 12.7

Recorded values, source patent US20240247080A1.
